// melting point lookup, one value per entry

Check out these entries, answers already filled in.
- Cpd Smiles: "CCCCCCCCCCCCCCCc1nnc(S)n1N=Cc1ccc(C=O)cc1"
  Experimental Readout: "melting point"
  Result: "182 to 185 °C"
- Cpd Smiles: "CCCCCCCCCCCCCCCc1nnc(S)n1N=Cc1ccccc1"
  Experimental Readout: "melting point"
  Result: "184 to 187 °C"
- Cpd Smiles: "CCCCCCCCCCCCCCCc1nnc(S)n1N=Cc1ccccc1[N+](=O)[O-]"
  Experimental Readout: "melting point"
  Result: "195 to 198 °C"
- Cpd Smiles: "CCCCCCCCCCCCCCCc1nnc(S)n1N=Cc1ccc(O)cc1"
  Experimental Readout: "melting point"
  Result: "192 to 195 °C"

Query block: State, in one line, measured melting point of CCCCCCCCCCCCCCCc1nnc(S)n1N=Cc1ccc(Cl)cc1Cl
Result block: 211 to 214 °C

====

# Test Details: DPPH free radical scavenging activity
# Run Conditions: DPPH antioxidant
Note to self: use satisfied only for IC50 readings below 40 µg/mL; a reading exactly at 40 µg/mL still gets not satisfied.

Reference set, count: 2
- Compound: "O=C1O[C@H]([C@@H](O)CO)C(O)=C1O [Ascorbic acid, reference compound]"
  Discrete Label: "satisfied"
- Compound: "CCCCCCCCCCCCCCCc1nnc(S)n1N=Cc1cccc([N+](=O)[O-])c1"
  Discrete Label: "not satisfied"

Query block: Answer whether the compound CCCCCCCCCCCCCCCc1nnc(S)n1N=Cc1ccc(N(C)C)cc1 has IC50 strictly less than 40 µg/mL
Result block: satisfied

Query block: Answer whether the compound CCCCCCCCCCCCCCCc1nnc(S)n1N=Cc1ccc(Cl)cc1 has IC50 strictly less than 40 µg/mL
Result block: not satisfied

====

# Target Or System: Jack Bean Urease (Canavalia ensiformis)
# Test Details: biochemical
# Procedure: Urease inhibitory potential for each synthesisized compound (T1–T20) was evaluated using Jack Bean Urease by Indophenol method (Table 5, Figs. 9, 10, 11). […] Absorbance of reaction mixture was recorded by ELISA at 570 nm. Ammonium carbonate increased the pH of phosphate buffer from 6.8 to 7.7 which was produced from urea by urease enzyme and the end peak was measured by the colour of phenol red indicator [16]. […]
Outcome: satisfied for inhibition at 100 µg/mL of at least 70%; not satisfied for anything lower.

Reference set, count: 6
- Cpd Smiles: "CCCCCCCCCCCCCCCc1nnc(S)n1N=Cc1ccc(Cl)cc1"
  Discrete Label: "satisfied"
- Cpd Smiles: "CCCCCCCCCCCCCCCc1nnc(S)n1N=Cc1ccccc1[N+](=O)[O-]"
  Discrete Label: "satisfied"
- Cpd Smiles: "CCCCCCCCCCCCCCCc1nnc(S)n1N=Cc1ccc(Cl)cc1Cl"
  Discrete Label: "not satisfied"
- Cpd Smiles: "CCCCCCCCCCCCCCCc1nnc(S)n1N=Cc1cccc([N+](=O)[O-])c1"
  Discrete Label: "not satisfied"
- Cpd Smiles: "CCCCCCCCCCCCCCCc1nnc(S)n1N=Cc1ccc(OC)c(O)c1"
  Discrete Label: "satisfied"
- Cpd Smiles: "CCCCCCCCCCCCCCCc1nnc(S)n1N=Cc1ccccc1"
  Discrete Label: "satisfied"

Query block: Reported inhibition at 100 µg/mL at or above 70%? CCCCCCCCCCCCCCCc1nnc(S)n1N=Cc1ccc(C=O)cc1
Result block: not satisfied

Query block: Reported inhibition at 100 µg/mL at or above 70%? CCCCCCCCCCCCCCCc1nnc(S)n1N=Cc1ccc(O)cc1
Result block: satisfied

Query block: Reported inhibition at 100 µg/mL at or above 70%? CCCCCCCCCCCCCCCc1nnc(S)n1N=Cc1cc(OC)c(OC)c(OC)c1
Result block: satisfied

Query block: Reported inhibition at 100 µg/mL at or above 70%? CCCCCCCCCCCCCCCc1nnc(S)n1N=Cc1cccc(Cl)c1
Result block: satisfied

====

# Target Or System: Jack Bean Urease (Canavalia ensiformis, UniProt P07374)
# Sequence (P07374 whole entry, looked up): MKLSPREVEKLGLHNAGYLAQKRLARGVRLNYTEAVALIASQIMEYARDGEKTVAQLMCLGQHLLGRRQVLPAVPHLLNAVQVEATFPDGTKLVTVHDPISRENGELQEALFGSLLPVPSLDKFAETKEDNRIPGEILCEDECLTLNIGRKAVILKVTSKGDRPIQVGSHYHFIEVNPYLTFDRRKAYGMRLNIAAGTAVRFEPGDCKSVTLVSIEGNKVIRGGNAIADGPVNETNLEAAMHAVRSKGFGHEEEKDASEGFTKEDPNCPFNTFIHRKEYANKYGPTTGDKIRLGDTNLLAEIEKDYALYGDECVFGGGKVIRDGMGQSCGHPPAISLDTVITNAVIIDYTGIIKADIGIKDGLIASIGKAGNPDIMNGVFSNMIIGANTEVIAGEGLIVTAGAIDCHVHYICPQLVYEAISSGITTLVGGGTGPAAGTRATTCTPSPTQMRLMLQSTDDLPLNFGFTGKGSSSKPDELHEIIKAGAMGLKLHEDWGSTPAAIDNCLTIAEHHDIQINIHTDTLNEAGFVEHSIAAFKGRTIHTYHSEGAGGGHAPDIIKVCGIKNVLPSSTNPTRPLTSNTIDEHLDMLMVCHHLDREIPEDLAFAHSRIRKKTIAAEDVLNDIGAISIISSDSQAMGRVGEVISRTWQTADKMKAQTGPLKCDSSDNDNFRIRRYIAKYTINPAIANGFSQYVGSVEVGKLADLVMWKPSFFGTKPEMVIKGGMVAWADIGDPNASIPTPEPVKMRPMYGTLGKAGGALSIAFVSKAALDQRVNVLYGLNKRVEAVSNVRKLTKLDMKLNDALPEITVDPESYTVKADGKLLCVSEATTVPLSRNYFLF
# Test Details: biochemical
Experimental Readout: inhibition at 50 µg/mL (%)
Give your result in % as a bare value.

Check out these entries, answers already filled in.
- Molecule: "CCCCCCCCCCCCCCCc1nnc(S)n1N=Cc1ccc(OC)c(OC)c1 [Compound T4]"
  inhibition at 50 µg/mL [%]: 49.5
- Molecule: "CCCCCCCCCCCCCCCc1nnc(S)n1N=Cc1cccc([N+](=O)[O-])c1 [Compound T16]"
  inhibition at 50 µg/mL [%]: 49.1
- Molecule: "CCCCCCCCCCCCCCCc1nnc(S)n1N=Cc1cc(OC)c(OC)c(OC)c1 [Compound T5]"
  inhibition at 50 µg/mL [%]: 44.4
- Molecule: "CCCCCCCCCCCCCCCc1nnc(S)n1N=Cc1cccc(Br)c1 [Compound T13]"
  inhibition at 50 µg/mL [%]: 48.8
- Molecule: "CCCCCCCCCCCCCCCc1nnc(S)n1N=Cc1ccc(N(C)C)cc1 [Compound T9]"
  inhibition at 50 µg/mL [%]: 53.7

Let us examine a further case.
Query block: Specify inhibition at 50 µg/mL for CCCCCCCCCCCCCCCc1nnc(S)n1N=Cc1ccccc1[N+](=O)[O-] [Compound T15] , system Jack Bean Urease (Canavalia ensiformis, UniProt P07374).
Result block: 37.1

====

// MIC lookup, one value per entry
# System: Bacillus subtilis
# Test Details: In vitro antimicrobial screening, tube dilution method
# Type: cell-based
# Run Conditions: Bacillus subtilis; B. substilis, Gram +ve; nutrient broth, 37 ± 1 °C, 24 h; read-out: Minimum inhibitory concentration
Give your result in µM as a bare value.

Check out these entries, answers already filled in.
- Compound: "CCCCCCCCCCCCCCCc1nnc(S)n1N=Cc1cccc(Cl)c1 [Compound T10]"
  MIC, µM: 55.6
- Compound: "CCCCCCCCCCCCCCCc1nnc(S)n1N=Cc1ccccc1[N+](=O)[O-] [Compound T15]"
  MIC, µM: 54.3

Let us examine a further case.
Query block: State, in one line, measured MIC of CCCCCCCCCCCCCCCc1nnc(S)n1N=Cc1cc(OC)c(OC)c(OC)c1 [Compound T5]
Result block: 24.7

====

# Test Details: DPPH free radical scavenging activity
# Run Conditions: DPPH, 75 µg/ml
Experimental Readout: % inhibition (%)
Give your result in % as a bare value.

Check out these entries, answers already filled in.
- Compound: "CCCCCCCCCCCCCCCc1nnc(S)n1N=Cc1c(O)ccc2ccccc12"
  % inhibition, %: 80.13
- Compound: "CCCCCCCCCCCCCCCc1nnc(S)n1N=Cc1ccc([N+](=O)[O-])cc1"
  % inhibition, %: 78.16
- Compound: "CCCCCCCCCCCCCCCc1nnc(S)n1N=Cc1ccc(C)cc1"
  % inhibition, %: 75.67

Query block: State, in one line, measured % inhibition of CCCCCCCCCCCCCCCc1nnc(S)n1N=Cc1cc(OC)c(OC)c(OC)c1
Result block: 68.98

Query block: State, in one line, measured % inhibition of CCCCCCCCCCCCCCCc1nnc(S)n1N=Cc1ccccc1O
Result block: 60.56

Query block: State, in one line, measured % inhibition of CCCCCCCCCCCCCCCc1nnc(S)n1N=Cc1ccc(OC)c(O)c1
Result block: 77.78

Query block: State, in one line, measured % inhibition of O=C1O[C@H]([C@@H](O)CO)C(O)=C1O [Ascorbic acid, reference compound]
Result block: 84.78

Query block: State, in one line, measured % inhibition of CCCCCCCCCCCCCCCc1nnc(S)n1N=Cc1cccc([N+](=O)[O-])c1
Result block: 67.26

Query block: State, in one line, measured % inhibition of CCCCCCCCCCCCCCCc1nnc(S)n1N=Cc1cccc(Cl)c1
Result block: 57.57

Query block: State, in one line, measured % inhibition of CCCCCCCCCCCCCCCc1nnc(S)n1N=Cc1ccccc1
Result block: 69.67

====

# Target Or System: Jack Bean Urease (Canavalia ensiformis, UniProt P07374)
# Test Details: biochemical
Experimental Readout: inhibition at 50 µg/mL (%)
Give your result in % as a bare value.

Check out these entries, answers already filled in.
- Cpd Smiles: "CCCCCCCCCCCCCCCc1nnc(S)n1N=Cc1ccc(Cl)cc1"
  inhibition at 50 µg/mL / %: 42.5
- Cpd Smiles: "CCCCCCCCCCCCCCCc1nnc(S)n1N=Cc1ccc(OC)c(O)c1"
  inhibition at 50 µg/mL / %: 50.3
- Cpd Smiles: "CCCCCCCCCCCCCCCc1nnc(S)n1N=Cc1ccc(Br)cc1"
  inhibition at 50 µg/mL / %: 46.2

Query block: State, in one line, measured inhibition at 50 µg/mL of CCCCCCCCCCCCCCCc1nnc(S)n1N=Cc1ccc(C=O)cc1
Result block: 49.5

Query block: State, in one line, measured inhibition at 50 µg/mL of CCCCCCCCCCCCCCCc1nnc(S)n1N=Cc1ccccc1O
Result block: 46.9

Query block: State, in one line, measured inhibition at 50 µg/mL of CCCCCCCCCCCCCCCc1nnc(S)n1N=Cc1ccc([N+](=O)[O-])cc1
Result block: 42.4

Query block: State, in one line, measured inhibition at 50 µg/mL of CCCCCCCCCCCCCCCc1nnc(S)n1N=Cc1cccc(Cl)c1
Result block: 46.9

Reference source for all entries: paper PMC7818921
